System: PDE4
Experiment: Inhibition of PDE 4 activity (method of Bauer and Schwabe, adapted to microtitre plates)
Assay type: biochemical
Conditions: measured as -logIC50 (mol/l)
Listed below: -logIC50 values for each entry.
The reply should be a number, written without any unit.

Below: 6 compounds and their reported -logIC50.
1. COc1ccc(-c2nn(CC(=O)c3ccccc3)c(=O)c3ccccc23)cc1OC(F)F [Compound 5] :: 7.14
2. COc1ccc(-c2nn(CC(=O)c3ccccc3)c(=O)c3ccccc23)cc1OC1CCCC1 [Compound 4] :: 7.09
3. COc1ccc(-c2nn(CC(=O)c3cc(Cl)c(N)c(Cl)c3)c(=O)c3ccccc23)cc1OC [Compound 12] :: 6.85
4. COc1ccc(-c2nn(CC(=O)c3ccccc3OC)c(=O)c3ccccc23)cc1OC [Compound 7] :: 7.52
5. COc1ccc(OC)c(C(=O)Cn2nc(-c3ccc(OC)c(OC)c3)c3ccccc3c2=O)c1 [Compound 10] :: 6.99
6. CCOc1ccc(-c2nn(CC(=O)c3ccccc3)c(=O)c3ccccc23)cc1OCC [Compound 2] :: 7.01

Challenge: What value of -logIC50 has been reported for the following compound? CCOc1cc(-c2nn(CC(=O)c3ccccc3)c(=O)c3ccccc23)ccc1OC [Compound 3]
Response given: 7.28
